Target: T1, huNABA-avi-his (hybrid protein N-A1-B3-A2: N and A1 domains of human BGP, B3 domain of human CEA, A2 domain … (human, biotinylated at the avi tag (in vivo, co-transfected biotin ligase)))
T1 construct: also called NABA-avi-his reagent; biotinylated NABA
T1 chain: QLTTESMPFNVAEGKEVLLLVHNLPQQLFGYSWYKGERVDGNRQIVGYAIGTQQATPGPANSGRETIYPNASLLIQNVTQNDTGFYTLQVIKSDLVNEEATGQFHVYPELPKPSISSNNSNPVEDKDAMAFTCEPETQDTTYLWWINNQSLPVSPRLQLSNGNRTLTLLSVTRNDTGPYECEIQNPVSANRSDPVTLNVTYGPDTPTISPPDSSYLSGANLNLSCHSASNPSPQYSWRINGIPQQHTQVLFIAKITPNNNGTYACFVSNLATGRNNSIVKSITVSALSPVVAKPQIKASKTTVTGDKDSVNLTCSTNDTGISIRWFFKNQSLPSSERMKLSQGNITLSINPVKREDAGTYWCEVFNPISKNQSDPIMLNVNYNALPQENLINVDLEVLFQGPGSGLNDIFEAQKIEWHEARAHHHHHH
Test: Proteon SPR, antibody analyte on biotinylated NABA (Neutravidin chip); column Ka (M)

BINDER	ENDPOINT UNIT	kon
antibody with heavy chain CH7A (D99Y) and light chain 2F1 (antibody, V domains shown, Bivalent form) VH: QVQLVQSGSELKKPGASVKVSCKASGYTFTEFGMNWVRQAPGQGLEWMGWINTKTGEATYVEEFKGRFVFSLDTSVSTAYLQISSLKAEDTAVYYCARWDFYYYVEAMDYWGQGTTVTVSS VL: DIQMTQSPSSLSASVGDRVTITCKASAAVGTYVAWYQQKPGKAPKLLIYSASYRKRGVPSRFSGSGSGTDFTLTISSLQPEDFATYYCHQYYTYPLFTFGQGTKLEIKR	M⁻¹ s⁻¹	114000
antibody with heavy chain CH7A (Y98A/D99Y) and light chain 2F1 (antibody, V domains shown, Bivalent form; also called double mutant (Y98A/D99Y)) VH: QVQLVQSGSELKKPGASVKVSCKASGYTFTEFGMNWVRQAPGQGLEWMGWINTKTGEATYVEEFKGRFVFSLDTSVSTAYLQISSLKAEDTAVYYCARWDFAYYVEAMDYWGQGTTVTVSS VL: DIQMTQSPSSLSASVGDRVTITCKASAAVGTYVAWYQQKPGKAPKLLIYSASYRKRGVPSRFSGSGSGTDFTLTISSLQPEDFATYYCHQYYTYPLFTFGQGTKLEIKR	M⁻¹ s⁻¹	236000
antibody with heavy chain CH7A (Y98A) and light chain 2F1 (antibody, V domains shown, Bivalent form) VH: QVQLVQSGSELKKPGASVKVSCKASGYTFTEFGMNWVRQAPGQGLEWMGWINTKTGEATYVEEFKGRFVFSLDTSVSTAYLQISSLKAEDTAVYYCARWDFADYVEAMDYWGQGTTVTVSS VL: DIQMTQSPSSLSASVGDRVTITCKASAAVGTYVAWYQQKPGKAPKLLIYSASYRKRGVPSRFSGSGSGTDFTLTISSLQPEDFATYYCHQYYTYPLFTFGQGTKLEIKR	M⁻¹ s⁻¹	132000
antibody with heavy chain CH7A (V101F) and light chain 2F1 (antibody, V domains shown, Bivalent form) VH: QVQLVQSGSELKKPGASVKVSCKASGYTFTEFGMNWVRQAPGQGLEWMGWINTKTGEATYVEEFKGRFVFSLDTSVSTAYLQISSLKAEDTAVYYCARWDFYDYFEAMDYWGQGTTVTVSS VL: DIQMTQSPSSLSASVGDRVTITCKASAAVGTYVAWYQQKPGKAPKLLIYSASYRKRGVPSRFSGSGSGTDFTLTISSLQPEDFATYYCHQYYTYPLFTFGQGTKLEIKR	M⁻¹ s⁻¹	59400
antibody with heavy chain CH7A (A103T) and light chain 2F1 (antibody, V domains shown, Bivalent form) VH: QVQLVQSGSELKKPGASVKVSCKASGYTFTEFGMNWVRQAPGQGLEWMGWINTKTGEATYVEEFKGRFVFSLDTSVSTAYLQISSLKAEDTAVYYCARWDFYDYVETMDYWGQGTTVTVSS VL: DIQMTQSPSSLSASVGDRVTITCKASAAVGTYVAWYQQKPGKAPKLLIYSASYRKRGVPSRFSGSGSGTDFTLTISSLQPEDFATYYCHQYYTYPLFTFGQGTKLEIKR	M⁻¹ s⁻¹	25100
humanized PR1A3 antibody with heavy chain variable region CH7A and light chain variable region 2F1 (antibody, V domains shown, Measured in the bivalent form; also called CH7Ax2F1; parental antibody CH7A) VH: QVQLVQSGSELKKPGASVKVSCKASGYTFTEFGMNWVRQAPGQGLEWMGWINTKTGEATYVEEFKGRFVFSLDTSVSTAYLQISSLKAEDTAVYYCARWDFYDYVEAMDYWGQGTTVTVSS VL: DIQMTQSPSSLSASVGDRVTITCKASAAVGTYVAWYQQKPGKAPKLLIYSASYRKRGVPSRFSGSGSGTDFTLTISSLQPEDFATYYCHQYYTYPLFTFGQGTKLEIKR	M⁻¹ s⁻¹	132000
antibody with heavy chain CH7A (D99H) and light chain 2F1 (antibody, V domains shown, Bivalent form) VH: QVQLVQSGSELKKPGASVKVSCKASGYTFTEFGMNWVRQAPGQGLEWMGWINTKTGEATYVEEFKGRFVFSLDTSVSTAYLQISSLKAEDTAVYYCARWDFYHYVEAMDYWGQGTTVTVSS VL: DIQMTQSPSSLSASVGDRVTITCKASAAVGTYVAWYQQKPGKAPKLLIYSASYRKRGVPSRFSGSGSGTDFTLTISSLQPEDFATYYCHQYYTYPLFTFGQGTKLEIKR	M⁻¹ s⁻¹	86500
antibody with heavy chain CH7A (E102Q) and light chain 2F1 (antibody, V domains shown, Bivalent form) VH: QVQLVQSGSELKKPGASVKVSCKASGYTFTEFGMNWVRQAPGQGLEWMGWINTKTGEATYVEEFKGRFVFSLDTSVSTAYLQISSLKAEDTAVYYCARWDFYDYVQAMDYWGQGTTVTVSS VL: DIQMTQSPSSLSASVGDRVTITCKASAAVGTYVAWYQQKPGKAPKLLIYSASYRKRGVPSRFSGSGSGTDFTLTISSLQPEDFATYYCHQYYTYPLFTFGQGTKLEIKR	M⁻¹ s⁻¹	198000
